The reported measurements were obtained from patent US9676780B2.

Molecular target: human A2a receptor (Homo sapiens, UniProt P29274)
Construct: purchased Perkin-Elmer RBHA2AM400UA; host or cells: HEK293
Sequence (P29274 whole entry): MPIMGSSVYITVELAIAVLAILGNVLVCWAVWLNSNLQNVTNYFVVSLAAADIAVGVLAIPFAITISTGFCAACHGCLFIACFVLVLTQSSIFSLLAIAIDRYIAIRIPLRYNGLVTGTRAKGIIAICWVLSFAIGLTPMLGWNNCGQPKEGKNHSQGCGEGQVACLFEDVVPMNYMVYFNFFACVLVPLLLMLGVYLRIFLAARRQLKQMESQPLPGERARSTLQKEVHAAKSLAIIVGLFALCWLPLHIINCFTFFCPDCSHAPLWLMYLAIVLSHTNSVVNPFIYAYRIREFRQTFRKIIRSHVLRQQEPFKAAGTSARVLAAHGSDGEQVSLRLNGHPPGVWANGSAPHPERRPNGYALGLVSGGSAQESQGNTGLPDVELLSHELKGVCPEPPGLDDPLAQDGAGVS
Assay: A2a receptor competition binding assay (Scintillation Proximity, tritiated radioligand)
Details: membranes from HEK293 cells expressing the human A2a receptor; 0.5 nM tritiated ligand; SPA beads; one hour at room temperature; read-out: A2a EC50
measured-quantity: EC50 (nM)
Please give a number only; it is taken to be in nM.

COc1cccc2c1nc(N)n1nc(CN3CCN(c4cccc(S(C)(=O)=O)c4)CC3C)nc21 (centres unmarked)    13.9
COc1cccc2c1nc(N)n1nc(CN3CCN(Cc4cc(C)ccc4C)CC3C)nc21 (centres unmarked)    18.1
COc1cccc2c1nc(N)n1nc(CCN3CCN(c4ccc(F)cc4)C[C@H]3C)nc21    4.1
COc1cccc2c1nc(N)n1nc(CN3CCN(c4nnc(C)s4)CC3C)nc21 (centres unmarked)    31.8
COc1cccc2c1nc(N)n1nc(CN3CCN(C(C)c4ccc(F)cc4F)CC3C)nc21 (centres unmarked) [Ex-93]    4.6
COc1cccc2c1nc(N)n1nc(CN3CCN(c4ccc5ccccc5c4)CC3C)nc21 (centres unmarked)    6.7
COc1cc(N2CCN(Cc3nc4c5cccc(OC)c5nc(N)n4n3)C(C)C2)ccc1Cl (centres unmarked)    1.03
COc1cccc2c1nc(N)n1nc(CN3CCN(c4ccc(F)cn4)[C@@H](C)C3)nc21    10.2

Can you look up the measured EC50 of COc1cccc2c1nc(N)n1nc(CN3CCN(Cc4nccs4)CC3C)nc21 (centres unmarked) for me?
26.7

Can you look up the measured EC50 of COc1cc(N2CCN(Cc3nc4c5cccc(OC)c5nc(N)n4n3)C(C)C2)ccn1 (centres unmarked) for me?
16.8

Can you look up the measured EC50 of COc1cccc2c1nc(N)n1nc(CN3CCN(c4ccc(C#N)cn4)CC3C)nc21 (centres unmarked) for me?
20.6

Can you look up the measured EC50 of COc1cccc2c1nc(N)n1nc(CN3CCN(c4ccc(F)cc4)C[C@H]3C(C)C)nc21 for me?
3.6

----------
Target: human A2a receptor (Homo sapiens, UniProt P29274)
Construct: purchased Perkin-Elmer RBHA2AM400UA; host or cells: HEK293
Assay: A2a receptor competition binding assay (Scintillation Proximity, tritiated radioligand)
Conditions: membranes from HEK293 cells expressing the human A2a receptor; 0.5 nM tritiated ligand; SPA beads; one hour at room temperature; read-out: A2a EC50
Protocol: Binding affinities of compounds of the invention for the human A2a receptor were determined in a competition binding assay using Scintillation Proximity technology. […] The beads were then allowed to settle to the bottom of the wells for 1 hr, after which the membrane-associated radioactivity was determined by scintillation counting in a TopCount microplate reader. Ki values were determined using the Cheng-Prusoff equation. […] The Ki value is calculated using the Cheng-Prusoff equation. […]
Category key, based on recorded EC50: lower segment: < 6 nM; middle segment: ≥ 6 nM and < 20 nM; upper segment: ≥ 20 nM

Some solved cases for reference:
COc1cccc2c1nc(N)n1nc(CCN3CCN(c4ccc(F)cn4)CC3)nc21 [Ex-164]    lower segment
COc1cccc2c1nc(N)n1nc(CN3CCN(Cc4ncco4)CC3C)nc21 (stereo not shown) [Ex-16]    upper segment

Category of COc1cccc2c1nc(N)n1nc(CN3CCN(c4ccc(C(F)(F)F)cn4)CC3(C)C)nc21 [Ex-199] , please.
middle segment

Category of COc1cccc2c1nc(N)n1nc(CN3CCN(c4ccc(F)c(C)n4)CC3C)nc21 (stereo not shown) [Ex-136] , please.
middle segment

Category of COc1cccc2c1nc(N)n1nc(CN3CCN(c4cc(C(F)(F)F)c(C(F)(F)F)cn4)CC3C)nc21 (stereo not shown) [Ex-139] , please.
upper segment

Category of COc1cccc2c1nc(N)n1nc(CN3CCN(c4ccc(F)cc4)C[C@H]3C3CC3)nc21 [Ex-43] , please.
lower segment

Category of COc1cccc2c1nc(N)n1nc(CN3CCN(Cc4cccc(Oc5ccccc5)c4)CC3C)nc21 (stereo not shown) [Ex-22] , please.
middle segment

Category of COc1cccc2c1nc(N)n1nc(CC(=O)N3CCN(c4ccc(F)cc4)C[C@H]3C)nc21 [Ex-154] , please.
lower segment

Category of COc1ccc(Cl)c(N2CCN(Cc3nc4c5cccc(OC)c5nc(N)n4n3)C(C)C2)c1 (stereo not shown) [Ex-121] , please.
middle segment

Category of COc1cccc2c1nc(N)n1nc(CN3CCN(c4cc(F)ccn4)CC3C)nc21 (stereo not shown) [Ex-107] , please.
middle segment

Category of COc1cccc2c1nc(N)n1nc(CN3CCN(Cc4ccc(F)c(F)c4)CC3C)nc21 (stereo not shown) [Ex-23] , please.
middle segment

Category of COc1cccc2c1nc(N)n1nc(CN3CCN(Cc4c(F)cccc4F)CC3C)nc21 (stereo not shown) [Ex-24] , please.
middle segment

Category of COc1cccc2c1nc(N)n1nc(CN3CCN(c4ccc(Cl)cn4)CC3C)nc21 (stereo not shown) [Ex-134] , please.
lower segment

Category of COc1cccc2c1nc(N)n1nc(CN3CCN(c4ccc5c(cnn5C)c4)CC3C)nc21 (stereo not shown) [Ex-130] , please.
lower segment

Category of COc1cncc(N2CCN(Cc3nc4c5cccc(OC)c5nc(N)n4n3)C(C)C2)c1OC (stereo not shown) [Ex-116] , please.
lower segment

Category of COCCOc1ccc(N2CCN(Cc3nc4c5cccc(OC)c5nc(N)n4n3)C3(CC3)C2)cc1 [Ex-189] , please.
lower segment

Category of COc1cccc2c1nc(N)n1nc(CN3CCN(c4ccc(F)cc4)CC3C(F)(F)F)nc21 (stereo not shown) [Ex-177] , please.
middle segment

Category of COc1cc(F)cc2c1nc(N)n1nc(CN3CCN(c4ccc(F)cn4)CC3C)nc21 (stereo not shown) [Ex-41] , please.
middle segment

Category of COc1cccc2c1nc(N)n1nc(CN3CCN(c4ccc(OCC(F)F)cc4)CC3C)nc21 (stereo not shown) [Ex-151] , please.
lower segment

Category of COCCN1CCN(Cc2nc3c4cccc(OC)c4nc(N)n3n2)C2(CC2)C1 [Ex-193] , please.
upper segment

----------
pEC50 values by entry
Target: human A2a receptor (Homo sapiens)
Construct: purchased Perkin-Elmer RBHA2AM400UA; host or cells: HEK293
Assay: A2a receptor competition binding assay (Scintillation Proximity, tritiated radioligand)
Settings: membranes from HEK293 cells expressing the human A2a receptor; 0.5 nM tritiated ligand; SPA beads; one hour at room temperature; read-out: A2a EC50
pEC50 here is simply -log10 of the concentration when that concentration is written in mol/L.

// solved cases for pEC50 follow
COc1cccc2c1nc(N)n1nc(CN3CCN(c4cnn(CC(C)(C)C)c4)CC3C)nc21 (stereo not drawn)    8.31
COc1cccc2c1nc(N)n1nc(CN3CCN(c4ncns4)CC3C)nc21 (stereo not drawn)    7.14
COc1cccc2c1nc(N)n1nc(CN3CCN(c4cc(C(F)(F)F)cc(C(F)(F)F)c4)CC3C)nc21 (stereo not drawn)    7.68
COc1cccc2c1nc(N)n1nc(CN3CCN(c4ccc(C(F)(F)F)cc4)CC3C)nc21 (stereo not drawn)    7.74

Can you look up the measured pEC50 of COc1cccc2c1nc(N)n1nc(CN3CCN(c4ccncc4F)CC3C)nc21 (stereo not drawn) for me?
7.64

Can you look up the measured pEC50 of COc1cccc2c1nc(N)n1nc(CN3CCN(c4ccc(C)cn4)CC3C)nc21 (stereo not drawn) for me?
7.85

----------
Target: human A2a receptor (Homo sapiens, UniProt P29274)
Construct: purchased Perkin-Elmer RBHA2AM400UA; host or cells: HEK293
Assay: A2a receptor competition binding assay (Scintillation Proximity, tritiated radioligand)
Details: membranes from HEK293 cells expressing the human A2a receptor; 0.5 nM tritiated ligand; SPA beads; one hour at room temperature; read-out: A2a EC50
pEC50 values by entry
pEC50 here is simply -log10 of the concentration when that concentration is written in mol/L.

// solved cases for pEC50 follow
COc1cccc2c1nc(N)n1nc(CN3CCN(c4ccc5ncccc5c4)CC3C)nc21 (stereo not drawn)    8.84
COc1cccc2c1nc(N)n1nc(CN3CCN(c4ccc(F)cc4)CC34CC4)nc21    8.09

Turning now to a further record.
Can you look up the measured pEC50 of COc1cccc2c1nc(N)n1nc(CN3CCN(c4nccnc4C)CC3C)nc21 (stereo not drawn) for me?
7.97

----------
Target: human A2a receptor (Homo sapiens)
Construct: purchased Perkin-Elmer RBHA2AM400UA; host or cells: HEK293
Experiment: A2a receptor competition binding assay (Scintillation Proximity, tritiated radioligand)
Settings: membranes from HEK293 cells expressing the human A2a receptor; 0.5 nM tritiated ligand; SPA beads; one hour at room temperature; read-out: A2a EC50
measured-quantity: pEC50
pEC50 here is simply -log10 of the concentration when that concentration is written in mol/L.

// solved cases for pEC50 follow
COc1cccc2c1nc(N)n1nc(CN3CCN(Cc4cc(F)cc(F)c4)CC3C)nc21 (centres unmarked)    7.66
COc1cccc2c1nc(N)n1nc(CN3CCN(c4cccc5c4cnn5C)CC3C)nc21 (centres unmarked)    8.80

Can you look up the measured pEC50 of COc1cccc2c1nc(N)n1nc(CN3CCN(c4ccc(C(F)(F)F)cn4)C[C@H]3C)nc21 for me?
7.65

Can you look up the measured pEC50 of COc1cccc2c1nc(N)n1nc(CN3CCN(c4cccc5nn(C)cc45)CC3C)nc21 (centres unmarked) for me?
8.69

Can you look up the measured pEC50 of COc1cccc2c1nc(N)n1nc(CN3CCN(c4noc(C(F)(F)F)n4)CC3C)nc21 (centres unmarked) for me?
7.32

Can you look up the measured pEC50 of COc1cccc2c1nc(N)n1nc(CN3CCN(c4ncc(F)cc4F)CC3C)nc21 (centres unmarked) for me?
8.31

Can you look up the measured pEC50 of COc1ccc(CN2CCN(Cc3nc4c5cccc(OC)c5nc(N)n4n3)CC2=O)cc1 for me?
8.03

Can you look up the measured pEC50 of COc1cccc2c1nc(N)n1nc(CN3CCN(c4ccc(F)cc4)[C@@H](C)C3)nc21 for me?
7.70
